The origin of these recorded values is ChEMBL document CHEMBL5661979.

experiment: Plasma concentration in Sprague-Dawley rat at 2 mg/kg, po measured after 30 mins by LC-MS/MS analysis; assay type: ADME, organism-based
ENDPOINT: concentration at 0.5 h

## Task What does the data say about its concentration at 0.5 h? Entry: `CCOc1cc(N2CCC(O)CC2)ccc1Nc1ncc2c(n1)N(C)c1ccccc1C(=O)N2C`
## Result ~500 nM

* * *

molecular target: Ribosomal protein S6 kinase alpha-1 (Homo sapiens); test: Inhibition of RSK1 domain 1 in human HeLa cells lysate pre incubated for 15 mins followed by ADP acyl phosphate probe addition and measured after 10 mins by LC-MS/MS analysis; type: subcellular
Sequence (Q15418 whole entry, the tested form may be a part): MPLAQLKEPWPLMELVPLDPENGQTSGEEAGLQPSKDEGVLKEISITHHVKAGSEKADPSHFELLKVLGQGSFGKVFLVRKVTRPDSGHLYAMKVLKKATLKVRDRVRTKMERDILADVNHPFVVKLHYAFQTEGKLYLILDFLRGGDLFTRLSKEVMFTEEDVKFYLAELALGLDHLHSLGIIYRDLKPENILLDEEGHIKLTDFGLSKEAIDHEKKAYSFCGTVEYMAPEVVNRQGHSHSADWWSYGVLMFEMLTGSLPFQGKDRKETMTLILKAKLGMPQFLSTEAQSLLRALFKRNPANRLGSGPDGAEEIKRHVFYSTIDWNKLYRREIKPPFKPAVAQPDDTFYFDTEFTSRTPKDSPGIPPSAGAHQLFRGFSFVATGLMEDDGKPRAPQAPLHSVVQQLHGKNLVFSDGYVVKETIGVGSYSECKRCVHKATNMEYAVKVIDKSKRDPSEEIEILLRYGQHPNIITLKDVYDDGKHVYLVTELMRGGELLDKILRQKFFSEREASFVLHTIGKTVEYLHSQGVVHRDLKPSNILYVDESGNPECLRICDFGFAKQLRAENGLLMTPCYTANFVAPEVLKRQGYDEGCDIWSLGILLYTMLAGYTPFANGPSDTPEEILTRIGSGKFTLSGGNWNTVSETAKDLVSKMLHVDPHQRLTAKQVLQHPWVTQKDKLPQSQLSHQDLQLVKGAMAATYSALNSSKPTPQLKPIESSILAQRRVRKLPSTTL
ENDPOINT: IC50

## Task Any idea what its IC50 is? The compound is `CCOc1cc(N2CCC(O)CC2)ccc1Nc1ncc2c(n1)N(C)c1ccccc1C(=O)N2C`
## Result > 50 µM
